src = the supplement of paper PMC6555819

- Test system: RARa homodimer (NR concentration 270 nM)
- experimentalDetails: PBM binding z-score (relative to random genomic background probes); higher = stronger binding; sequences stand for … in GC…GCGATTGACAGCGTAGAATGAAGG
assayMetric: PBM binding z-score
Could you keep your reply to the number by itself?

| sequenceInput | assayTarget | assayMetric | readoutNumber |
| --- | --- | --- | --- |
| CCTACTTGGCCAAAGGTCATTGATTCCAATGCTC | RARa homodimer (NR concentration 270 nM) | PBM binding z-score | 1.65 |
| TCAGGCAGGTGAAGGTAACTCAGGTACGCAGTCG | RARa homodimer (NR concentration 270 nM) | PBM binding z-score | -0.103 |
| CGTCCAAGGTCAAAGGTAAGTGAAGAGATGACGG | RARa homodimer (NR concentration 270 nM) | PBM binding z-score | 0.423 |
| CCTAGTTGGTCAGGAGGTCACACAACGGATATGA | RARa homodimer (NR concentration 270 nM) | PBM binding z-score | 2.05 |
| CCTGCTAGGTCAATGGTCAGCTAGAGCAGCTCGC | RARa homodimer (NR concentration 270 nM) | PBM binding z-score | -0.363 |

Okay, now this sequence:
What does the record list as PBM binding z-score for `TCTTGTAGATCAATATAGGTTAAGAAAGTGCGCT` ?
1.22
